- assayed_system: BTK C481S (Homo sapiens, UniProt Q06187, C481S)
- Sequence (Q06187 whole entry C481S): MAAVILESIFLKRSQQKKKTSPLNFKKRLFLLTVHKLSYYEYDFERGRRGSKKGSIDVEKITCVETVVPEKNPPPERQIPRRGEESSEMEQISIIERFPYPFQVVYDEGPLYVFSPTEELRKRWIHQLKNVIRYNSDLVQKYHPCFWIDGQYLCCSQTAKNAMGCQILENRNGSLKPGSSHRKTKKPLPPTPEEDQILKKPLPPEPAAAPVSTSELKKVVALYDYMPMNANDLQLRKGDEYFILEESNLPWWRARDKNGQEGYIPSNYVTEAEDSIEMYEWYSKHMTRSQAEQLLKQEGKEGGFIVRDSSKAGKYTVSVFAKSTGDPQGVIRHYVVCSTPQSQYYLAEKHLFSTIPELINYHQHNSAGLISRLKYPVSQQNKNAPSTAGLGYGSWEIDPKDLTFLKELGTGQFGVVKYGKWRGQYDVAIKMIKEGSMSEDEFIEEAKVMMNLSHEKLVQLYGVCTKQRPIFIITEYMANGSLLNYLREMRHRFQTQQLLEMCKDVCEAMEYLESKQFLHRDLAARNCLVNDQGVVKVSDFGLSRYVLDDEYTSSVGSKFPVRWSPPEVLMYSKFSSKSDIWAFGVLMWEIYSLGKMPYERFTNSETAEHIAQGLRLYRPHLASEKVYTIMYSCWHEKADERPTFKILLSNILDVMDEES
- measurement_protocol: Kinase activity inhibition assay (HTRF TK Kit)
Recorded IC50 values for a group of molecules are listed next.
attribute_measured: IC50

COc1ccc(F)cc1C(=O)NCc1ccc(-c2ncc(-c3ccc(CN4CCN(C)CC4)cn3)c3[nH]nc(N)c23)cc1 ... 1 to 5 nM
CCOC(=O)c1cnc2cc(-c3cnc(-c4ccc(CNC(=O)c5cc(F)ccc5OC)cc4)c4c(N)n[nH]c34)nn2c1 ... 5 to 50 nM
COc1ccc(F)cc1C(=O)NCc1ccc(-c2ncc(-c3cc4cnccn4n3)c3[nH]nc(N)c23)cc1 ... ≤ 1 nM
COc1ccc(F)cc1C(=O)NCc1ccc(-c2ncc(-c3ccn(CC(=O)N(C)C)n3)c3[nH]nc(N)c23)cc1 ... 1 to 5 nM
COc1ccc(F)cc1C(=O)NCc1ccc(-c2nc(C(C)C(F)(F)F)cc3[nH]nc(N)c23)cc1 (single isomer, unassigned) [Example 2] ... 1 to 5 nM
COc1ccc(F)cc1C(=O)NCc1ccc(-c2ncc(-c3ccc(OCCN4CCCC4)cn3)c3[nH]nc(N)c23)cc1 ... 1 to 5 nM
COc1ccc(F)cc1C(=O)NCc1ccc(-c2ncc(-c3nc4ccccn4n3)c3[nH]nc(N)c23)cc1 ... 1 to 5 nM
